# Test system: OVCAR-8
# EXPERIMENT_SUMMARY: NCI tumour cell line growth inhibition, 48 h
Active and inactive are the calls of the source. Rule as the data show it: active = GI50 up to about 1.1 µM and inactive = higher.
Response enum: T (active), F (inactive)

Past entries and their recorded results:
• COc1cc(/C=C/c2ccc(OC(C)=O)cc2)cc(OC)c1OC = F
• C=C1N(S(=O)(=O)c2ccc(C)cc2)C(=O)OCC12CCCC2 = F
• C[C@H]1COC2=C1C(=O)C(=O)c1c2ccc2c1CCCC2(C)C = F
• CC1OC(n2cc(F)c(=O)[nH]c2=O)C=CC1=O (configuration not stated) = F
• CCCNC(=S)N/N=C(\C)c1ccc(S(=O)(=O)N(C)c2ccccc2)cc1 = F

Incoming: I'd appreciate the recorded outcome for CC(C)(C)[Si](C)(C)OCC1OC(n2ccc(=O)[nH]c2=O)C(O[Si](C)(C)C(C)(C)C)/C1=C/C#N (configuration not stated) from this test.
Outgoing: F

Incoming: I'd appreciate the recorded outcome for `COc1ccc(-c2nc(N3CCCC3)no2)cc1` from this test.
Outgoing: F

Incoming: I'd appreciate the recorded outcome for `COC(=O)[C@@]12CCCC(=O)[C@@H]1[C@H]1CCCC[C@H]12` from this test.
Outgoing: F

Incoming: I'd appreciate the recorded outcome for `O=c1[nH]c2ccccc2c(=O)c2cc3ccccc3cc12` from this test.
Outgoing: F

Incoming: I'd appreciate the recorded outcome for `O=C1N=C2N=C(c3ccc(Cl)cc3)N(c3ccc(Cl)cc3)N2Sc2ccccc21` from this test.
Outgoing: F

Incoming: I'd appreciate the recorded outcome for `CN(C)c1nc(Cl)c2c(-c3ccccc3)c(-c3ccccc3)oc2n1` from this test.
Outgoing: F

---

# Tested on: SNB-19
# EXPERIMENT_SUMMARY: NCI tumour cell line growth inhibition, 48 h
Calls of active or inactive are those of the source. No stated cut-off is given here; in the data, active = GI50 up to about 1.1 µM and inactive = higher.
READOUT_TYPE: GI50

Guide cases for GI50, answers given:
• COc1ccc(NC(=S)Nc2c(C)n(C)n(-c3ccccc3)c2=O)cc1 = > 100 µM (inactive)
• C1=CCC[C@@H]2CN3CCCC/C=C\CCCC[C@H]4C[C@H](CN(CCCCCCCC1)C4)[C@H]2CC3 = 10.9 µM (inactive)

Incoming: Any idea what GI50 was measured for COc1ccc(N2C(=O)C3c4[nH]c5ccccc5c4C4CCC(C(C)(C)C)CC4C3C2=O)cc1OC (stereo not drawn) ?
Outgoing: 26.2 µM (inactive)

---

Can you tell me GI50 for the items I'm about to list?
# Tested on: NCI-H522
# EXPERIMENT_SUMMARY: NCI tumour cell line growth inhibition, 48 h
Active and inactive are the calls of the source. No stated cut-off is given here; in the data, active = GI50 up to about 1.1 µM and inactive = higher.

Guide cases for GI50, answers given:
• Cc1ncc(COP(=O)(O)O)c(/C=C2\SC(=S)NC2=O)c1O = > 100 µM (inactive)
• O=c1[nH]ccc2c1ccn2C1CC(O)C(CO)O1 (stereo not drawn) = > 100 µM (inactive)
• CCCCCCCCCCCCNC1(C)CNCCCNCCNCCCNC1 = 1.82 µM (inactive)
• O=c1ccn(-c2ccccn2)c(=O)n1-c1ccccn1 = > 100 µM (inactive)
• COC(=O)C(Cc1c(-c2[nH]c3ccccc3c2CC(NC(C)=O)C(=O)OC)[nH]c2ccccc12)NC(C)=O (stereo not drawn) = 16.3 µM (inactive)

Give GI50 for all compounds that follow.
1. CCCCCCNC(=O)C(C)C1CCC2(C)C=CC(=O)C(C)=C2C1O (stereo not drawn)
2. C[n+]1ccccc1/C1=c2\cc/c([nH]2)=C(\c2cccc[n+]2C)C2=N/C(=C(/c3cccc[n+]3C)C3C=CC(N3)/C(c3cccc[n+]3C)=C3/C=CC1=N3)C=C2
3. COc1cc(C(=O)CBr)c(OC)cc1C

Outgoing:
1: 86.3 µM (inactive); 2: > 100 µM (inactive); 3: > 100 µM (inactive)
